tgt: MMP-2 enzyme isolated from rat heart (Rattus norvegicus)
Construct: we used full-length, active MMP-2 enzymes isolated from healthy young adult rat hearts; from tissue; host or cells: rat heart homogenate (healthy young adult rats)
Sequence (P33436 110-662): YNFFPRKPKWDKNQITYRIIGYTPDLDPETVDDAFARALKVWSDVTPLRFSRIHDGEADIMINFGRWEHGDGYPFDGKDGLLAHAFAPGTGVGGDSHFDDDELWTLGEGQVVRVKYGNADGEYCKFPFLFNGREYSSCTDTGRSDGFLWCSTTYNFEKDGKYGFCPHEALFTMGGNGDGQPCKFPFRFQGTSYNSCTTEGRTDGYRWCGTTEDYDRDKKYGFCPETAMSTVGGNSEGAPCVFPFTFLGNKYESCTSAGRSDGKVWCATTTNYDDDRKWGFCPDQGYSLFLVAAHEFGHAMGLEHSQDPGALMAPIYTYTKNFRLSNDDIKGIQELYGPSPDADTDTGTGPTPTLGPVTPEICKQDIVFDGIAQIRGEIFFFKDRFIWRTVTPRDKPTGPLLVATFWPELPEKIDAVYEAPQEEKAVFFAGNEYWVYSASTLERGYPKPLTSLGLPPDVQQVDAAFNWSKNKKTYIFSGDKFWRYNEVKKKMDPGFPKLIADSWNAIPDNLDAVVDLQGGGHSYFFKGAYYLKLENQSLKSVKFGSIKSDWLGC
protocol text: Gelatin zymography on cardiac MMP-2
Format: biochemical
experimental parameters: 100 μM, cardiac MMP-2, gelatin zymography; read-out: Inhibition (%)±SEM at 100 μM final MMP inhibitor concentration
measured parameter: inhibition at 100 µM (%)

compound: O=C(O)c1csc(CN(Cc2ccc(F)cc2)Cc2ccc(OCc3ccccc3)cc2)n1
inhibition at 100 µM, %: 100
--
compound: O=C(O)C(c1ccccc1)N(Cc1ccc(OCc2ccccc2)cc1)Cc1cccc(F)c1 (stereo not drawn)
inhibition at 100 µM, %: 81.1
--
compound: O=C(O)c1csc(CN(Cc2ccc(F)cc2)Cc2ccc(OCc3cccnc3)cc2)n1
inhibition at 100 µM, %: 100
--
compound: O=C(O)c1csc(CN(Cc2ccncc2)Cc2ccc(OCc3ccccc3)cc2)n1
inhibition at 100 µM, %: 100
--
compound: O=C(O)c1csc(CN(Cc2ccc(F)cc2)Cc2ccc(-c3ccccc3)cc2)n1
inhibition at 100 µM, %: 100
--
compound: O=C(O)c1csc(CN(Cc2ccc(F)cc2)Cc2ccc(OCc3ccncc3)cc2)n1
inhibition at 100 µM, %: 100
